target_entity: rat pituitary cells (Rattus norvegicus)
Sequence (O08725 whole entry): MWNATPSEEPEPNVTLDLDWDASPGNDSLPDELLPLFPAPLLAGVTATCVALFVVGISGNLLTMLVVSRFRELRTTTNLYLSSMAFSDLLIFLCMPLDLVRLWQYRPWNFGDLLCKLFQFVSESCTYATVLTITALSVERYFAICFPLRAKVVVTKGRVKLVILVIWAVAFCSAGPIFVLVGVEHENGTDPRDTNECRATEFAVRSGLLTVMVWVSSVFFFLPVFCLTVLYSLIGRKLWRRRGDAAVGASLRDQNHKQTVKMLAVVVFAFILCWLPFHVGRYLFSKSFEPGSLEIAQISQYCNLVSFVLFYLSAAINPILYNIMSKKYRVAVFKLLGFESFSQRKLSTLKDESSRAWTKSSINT
condition_description: read-out: PIT Cell EC50; Table III, formula IV compounds; GH release, 15 min incubation
Non-standard residues stand in square brackets, D forms with d. Residues, ends and D or L forms follow the SMILES beside them. *: point of attachment. dNMe2Nal = CN[C@H](Cc1ccc2ccccc2c1)C(=O)O; d2Nal = N[C@H](Cc1ccc2ccccc2c1)C(=O)O; Inp = O=C(O)C1CCNCC1; Ahp = NCCCCCCC(=O)O; NHtBu = CC(C)(C)N*; Ava = NCCCCC(=O)O; GABA = NCCCC(=O)O
measurement_type: pEC50
pEC50 here: minus log base 10 of the concentration, concentration in moles per litre.

Can you share its pEC50? I mean this compound: NCCCCCCC(=O)N[C@H](Cc1ccc2ccccc2c1)C(=O)N[C@H](Cc1ccc2ccccc2c1)C(=O)N[C@@H](Cc1ccccc1)C(=O)N[C@@H](CCCCN)C(N)=O [(ahp) b b F K amide] (H-[Ahp][d2Nal][d2Nal]FK-NH2) 7.46

Fill in: pEC50 of CC(C)(C)NC(=O)[C@H](Cc1ccccc1)NC(=O)[C@@H](Cc1ccc2ccccc2c1)NC(=O)[C@@H](Cc1ccc2ccccc2c1)NC(=O)C1CCNCC1 [(inip) b b F tbm] (H-[Inp][d2Nal][d2Nal]F-NHtBu) is ___ 8.00

// query pEC50 value for entry CN(C(=O)CCCN)[C@H](Cc1ccc2ccccc2c1)C(=O)N[C@H](Cc1ccc2ccccc2c1)C(=O)N[C@@H](Cc1ccccc1)C(=O)N[C@@H](CCCCN)C(N)=O [(Ab) nmb b F K amide] (H-[GABA][dNMe2Nal][d2Nal]FK-NH2) 9.30

Returns the measured pEC50 for the input compound. Input: NCCCCC(=O)N[C@H](Cc1ccc2ccccc2c1)C(=O)N[C@H](Cc1ccc2ccccc2c1)C(=O)N[C@@H](Cc1ccccc1)C(=O)NCC(N)=O [(Ava) b b F G amide] (H-[Ava][d2Nal][d2Nal]FG-NH2) 8.14

What value of pEC50 has been reported for the following compound? NCCCCC(=O)N[C@H](Cc1ccc2ccccc2c1)C(=O)N[C@H](Cc1c[nH]c2ccccc12)C(=O)N[C@@H](Cc1ccccc1)C(=O)N[C@@H](CCCCN)C(N)=O [(Ava) b w F K amide] (H-[Ava][d2Nal][dW]FK-NH2) 8.34

Look up pEC50: NCCCCC(=O)N[C@H](Cc1ccc2ccccc2c1)C(=O)N[C@H](Cc1ccc2ccccc2c1)C(=O)N[C@@H](Cc1ccccc1)C(=O)N[C@@H](CCCCN)C(=O)N[C@@H](Cc1ccc(O)cc1)C(N)=O [(Ava) b b F K Y amide] (H-[Ava][d2Nal][d2Nal]FKY-NH2) 7.87

Could you share which pEC50 value was measured for NCCCCC(=O)N[C@H](Cc1ccc2ccccc2c1)C(=O)N[C@H](Cc1ccc2ccccc2c1)C(=O)N[C@@H](Cc1ccccc1)C(=O)N[C@H](CC(N)=O)C(N)=O [(Ava) b b F n amide] (H-[Ava][d2Nal][d2Nal]F[dN]-NH2) ? 8.00

What measured pEC50 goes with NCCCC[C@H](NC(=O)[C@H](Cc1ccccc1)NC(=O)[C@@H](Cc1c[nH]c2ccccc12)NC(=O)[C@@H](Cc1c[nH]c2ccccc12)NC(=O)CN)C(N)=O [G w w F K amide] (H-G[dW][dW]FK-NH2) ? 8.68
